Target: C5A + IGKV3-15*01 one-armed SEEDbody
Experiment: BLI; oaSEEDbody on anti-human Fc (AHC) tips; association with 100 nM CEACAM5 at pH 7.4, dissociation at pH 7.4 in kinetic buffer (PBS, 0.1% Tween 20, 1% BSA); 30 C; 1:1 model
readout: Kd

[[record]]
substance = "recombinant human His-tagged CEACAM5 (from UniProt P06731 35-685) (natural protein)"
measured_target = "C5A + IGKV3-15*01 one-armed SEEDbody"
test_result = "0.9 nM"


---

Molecular target: C5A + K40 one-armed SEEDbody
Test: BLI; oaSEEDbody on anti-human Fc (AHC) tips; association with 100 nM CEACAM5 at pH 7.4, dissociation at pH 7.4 in kinetic buffer (PBS, 0.1% Tween 20, 1% BSA); 30 C; 1:1 model
readout: Kd

[[record]]
substance = "recombinant human His-tagged CEACAM5 (from UniProt P06731 35-685) (natural protein)"
readout = "Kd"
test_result = "3.12 nM"


---

Molecular target: C5A + CV3 one-armed SEEDbody
Experiment: BLI; oaSEEDbody on anti-human Fc (AHC) tips; association with 100 nM CEACAM5 at pH 7.4, dissociation at pH 7.4 in kinetic buffer (PBS, 0.1% Tween 20, 1% BSA); 30 C; 1:1 model
pKd: −log10 of the molar value.
readout: pKd

[[record]]
substance = "recombinant human His-tagged CEACAM5 (from UniProt P06731 35-685) (natural protein)"
test_result = 8.59


---

Biological target: C6B/IGKV3-15*01 one-armed SEEDbody
Test: BLI; C6B oaSEEDbody on anti-Fab tips; association with 100 nM CEACAM6 at pH 7.4, dissociation at pH 7.4; 1:1 model
readout: Kd (nM)

[[record]]
substance = "CEACAM6 (from UniProt P40199 35-320) (natural protein)"
test_result = 8.77

